system: P. aeruginosa ATCC 27853; assay: Enhancement of doxycycline action against P. aeruginosa; format: cell-based, Pseudomonas aeruginosa; details: doxycycline at 4.5 µM
Each entry below lists one item and its recorded Dox/P. a: concentration required to restore doxycycline activity (combination MIC) value.
property-label: Dox/P. a: concentration required to restore doxycycline activity (combination MIC) (µM)

In [3]: df
Out[3]:
                                   compound  reported_value
0  O=C(Cc1c[nH]c2ccc(Br)cc12)NCCCNCCCCCCNCCCNC(=O)Cc1c[nH]c2ccc(Br)cc12.O=C(O)C(F)(F)F.O=C(O)C(F)(F)F [Compound 15b]            26.9
1  COc1ccc2[nH]cc(CC(=O)NCCCNCCCCCCCNCCCNC(=O)Cc3c[nH]c4ccc(OC)cc34)c2c1.O=C(O)C(F)(F)F.O=C(O)C(F)(F)F [Compound 16c]            12.5
2  O=C(Cc1c[nH]c2c(F)cccc12)NCCCNCCCCCCCCCCCCNCCCNC(=O)Cc1c[nH]c2c(F)cccc12.O=C(O)C(F)(F)F.O=C(O)C(F)(F)F [Compound 18f]             224
